Items are presented alongside their recorded EC50.
biological target: T1, CD47 on CCRF-CEM cells (human, UniProt Q08722 19-323); test: flow cytometry on antibody-opsonized CCRF-CEM cells, anti-human Alexa 647 secondary, median fluorescence, sigmoidal fit; Donor 1
T1 construct: Target is CD47 carried by the CD47-positive cell line CCRF-CEM; also called Cluster of Differentiation 47; integrin-associated protein
T1 sequence (Q08722 19-323): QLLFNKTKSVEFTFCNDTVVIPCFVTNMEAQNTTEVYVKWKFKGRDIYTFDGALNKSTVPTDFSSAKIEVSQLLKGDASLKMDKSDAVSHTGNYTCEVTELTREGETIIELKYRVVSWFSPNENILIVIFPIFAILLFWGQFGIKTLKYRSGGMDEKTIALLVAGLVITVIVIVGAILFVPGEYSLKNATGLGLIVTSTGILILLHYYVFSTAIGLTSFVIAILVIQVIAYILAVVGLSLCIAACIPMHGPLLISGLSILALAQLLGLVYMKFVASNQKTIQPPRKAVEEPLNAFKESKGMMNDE
Quick note: give the figure in µg/mL, leave out the unit.

Below are worked cases with known answers.
BINDER	QUANTITY NAME	OBS VALUE
Ab480/Ab1120 (HC Ab480, LC Ab1120) anti-CD47 antibody (antibody, V domains shown, FR and CDR L2 variant of AbParental) VH: QMQLVQSGAEVKKPGSSVKVSCKASGFNIKDYYLHWVRQAPGKGLEWMGWIDPDQGDTEYAQKFQGRVTITRDRSTSTAYMELRSLRAEDTAVYYCNAAYGSSSYPMDYWGQGTLVTVSS VL: NIQMTQSPSSLSASVGDRVTITCRASQDIHRYLSWFQQKPGKVPKHLIYRYVRFVDGVPSRFSGSGSGTEFTLTISSLQPEDFATYYCLQYDEFPYTFGGGTKVEIK	EC50	0.33
Ab356/Ab1122 (HC Ab356, LC Ab1122) anti-CD47 antibody (antibody, V domains shown, FR and CDR L2 variant of AbParental; The label order is HC/LC although the head says 'LC/HC'; r445 is used) VH: QMQLVQSGAEVKKPGSSVKVSCKASGFNIKDYYLHWVRQAPGKGLEWMGWIDPDQGDTEYAQKFQGRVTITRDRSTSTAYMELRSLRAEDTAVYYCNAAYGSSSYPMDYWGQGTTVTVSS VL: NIQMTQSPSSLSASVGDRVTITCRASQDIHRYLSWFQQKPGKVPKHLIYRYERFVDGVPSRFSGSGSGTEFTLTISSLQPEDFATYYCLQYDEFPYTFGGGTKVEIK	EC50	0.17

Entry under test: Ab1119/Ab356 (LC Ab1119, HC Ab356) anti-CD47 antibody (antibody, V domains shown, Variant of AbParental) VH: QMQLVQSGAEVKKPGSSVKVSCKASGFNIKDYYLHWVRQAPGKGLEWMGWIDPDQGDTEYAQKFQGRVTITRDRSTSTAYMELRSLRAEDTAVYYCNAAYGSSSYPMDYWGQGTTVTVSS VL: NIQMTQSPSSLSASVGDRVTITCRASQDIHRYLSWFQQKPGKVPKHLIYRANRLVSGVPSRFSGSGSGTEFTLTISSLQPEDFATYYCLQYDEFPYTFGGGTKVEIK . Its EC50 was 0.06

meta.source: patent US20190241654A1
